This collection of values is drawn from ChEMBL document CHEMBL4819034.

- assay: Permeability across apical to basolateral membrane in human Caco-2 cells
- Format: ADME, cell-based
- experimentalParameters: read-out: permeability
property: Papp A→B (×10⁻⁶ cm/s)
One number for each entry, in ×10⁻⁶ cm/s.

Hey, quick one: what's Papp A→B for each of these?
1. [2H]C([2H])([2H])N1C(=O)C(F)CC1C(=O)N[C@@H]1CC[C@@]2(S(=O)(=O)c3ccc(F)cc3)c3ccc(C(F)(C(F)(F)F)C(F)(F)F)cc3CC[C@@H]12 (single isomer, unassigned)
2. CC(C)(O)C(=O)N[C@@H]1CC[C@@]2(S(=O)(=O)c3ccc(F)cc3)c3ccc(C(F)(C(F)(F)F)C(F)(F)F)cc3CC[C@@H]12

A.
9.2
10.6

###

- assay: Metabolic stability in rat liver microsomes assessed as parent compound remaining
- Assay type: ADME, Microsome
property: Stabilty (%)
Give bare numbers, in %.

CC(=O)N1CCC(C(=O)N[C@@H]2CC[C@@]3(S(=O)(=O)c4ccc(F)cc4)c4ccc(C(F)(C(F)(F)F)C(F)(F)F)cc4CC[C@@H]23)CC1    100
CC(C)(O)CC(=O)N[C@@H]1CC[C@@]2(S(=O)(=O)c3ccc(F)cc3)c3ccc(C(F)(C(F)(F)F)C(F)(F)F)cc3CC[C@@H]12    90

Field: next compound
Q. What value of measured Stabilty is listed for `O=C(N[C@@H]1CC[C@@]2(S(=O)(=O)c3ccc(F)cc3)c3ccc(C(F)(C(F)(F)F)C(F)(F)F)cc3CC[C@@H]12)C1(O)CCOCC1` ?
A. 66

###

- studySystem: Nuclear receptor ROR-gamma (Mus musculus, UniProt P51450)
- Sequence (P51450 whole entry): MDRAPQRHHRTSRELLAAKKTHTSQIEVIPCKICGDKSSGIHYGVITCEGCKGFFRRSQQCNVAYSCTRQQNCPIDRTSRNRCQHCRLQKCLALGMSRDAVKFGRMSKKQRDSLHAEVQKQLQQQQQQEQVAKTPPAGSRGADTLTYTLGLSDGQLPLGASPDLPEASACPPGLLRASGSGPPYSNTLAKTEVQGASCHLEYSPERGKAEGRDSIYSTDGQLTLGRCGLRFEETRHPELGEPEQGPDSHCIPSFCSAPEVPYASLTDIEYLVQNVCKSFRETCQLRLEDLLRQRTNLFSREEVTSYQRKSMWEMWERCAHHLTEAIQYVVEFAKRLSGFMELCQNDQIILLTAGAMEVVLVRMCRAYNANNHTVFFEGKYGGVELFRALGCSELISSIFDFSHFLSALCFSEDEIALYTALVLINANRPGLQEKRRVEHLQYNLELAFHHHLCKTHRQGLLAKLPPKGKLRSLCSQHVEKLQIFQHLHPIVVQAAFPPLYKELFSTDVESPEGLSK
- assay: Inverse agonist activity at RORgammat in mouse Th17 cells assessed as inhibition of CD3/CD28/IL-1/IL-23-induced IL-17A production measured after 24 hrs by AlphaLISA assay
property: EC50
Record the result as a number with its unit.

Q. What value of measured EC50 is listed for `CC(C)(O)C(=O)N[C@@H]1CC[C@@]2(S(=O)(=O)c3ccc(F)cc3)c3ccc(C(F)(C(F)(F)F)C(F)(F)F)cc3CC[C@@H]12` ?
A. 2.7 nM

###

- assay: Metabolic stability in human liver microsomes assessed as parent compound remaining
- Type: ADME, Microsome
property: Stabilty (%)
Numbers only, in %.

Some solved entries appear below for comparison.
CC(C)(N)C(=O)N[C@@H]1CC[C@@]2(S(=O)(=O)c3ccc(F)cc3)c3ccc(C(F)(C(F)(F)F)C(F)(F)F)cc3CC[C@@H]12    80
CC(=O)NCC(=O)N[C@@H]1CC[C@@]2(S(=O)(=O)c3ccc(F)cc3)c3ccc(C(F)(C(F)(F)F)C(F)(F)F)cc3CC[C@@H]12    100
[2H]C([2H])([2H])N1C(=O)C(O)CC1C(=O)N[C@@H]1CC[C@@]2(S(=O)(=O)c3ccc(F)cc3)c3ccc(C(F)(C(F)(F)F)C(F)(F)F)cc3CC[C@@H]12 (single isomer, unassigned)    99
O=C(CO)N[C@@H]1CC[C@@]2(S(=O)(=O)c3ccc(F)cc3)c3ccc(C(F)(C(F)(F)F)C(F)(F)F)cc3CC[C@@H]12    82
C[C@@H](O)C(=O)N[C@@H]1CC[C@@]2(S(=O)(=O)c3ccc(F)cc3)c3ccc(C(F)(C(F)(F)F)C(F)(F)F)cc3CC[C@@H]12    71

Hey, quick one: what's Stabilty for each of these?
1. O=C(N[C@@H]1CC[C@@]2(S(=O)(=O)c3ccc(F)cc3)c3ccc(C(F)(C(F)(F)F)C(F)(F)F)cc3CC[C@@H]12)C1(O)CCOCC1
2. CC(C)(C(=O)N[C@@H]1CC[C@@]2(S(=O)(=O)c3ccc(F)cc3)c3ccc(C(F)(C(F)(F)F)C(F)(F)F)cc3CC[C@@H]12)N1CCOCC1
3. O=C(NCCO)N[C@@H]1CC[C@@]2(S(=O)(=O)c3ccc(F)cc3)c3ccc(C(F)(C(F)(F)F)C(F)(F)F)cc3CC[C@@H]12
4. O=C(N[C@@H]1CC[C@@]2(S(=O)(=O)c3ccc(F)cc3)c3ccc(C(F)(C(F)(F)F)C(F)(F)F)cc3CC[C@@H]12)C1(O)CCNCC1

A.
100
0.3
97
100
